Recorded values, source patent US20240165276A1.

# measurementTarget: Aβ(1-42) amyloid fibrils (Homo sapiens, UniProt P05067)
# Sequence (P05067 672-713 limits assumed): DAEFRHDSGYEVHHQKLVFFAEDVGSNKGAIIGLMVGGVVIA
# procedureText: ^3H-AZD2184 competition binding to Aβ(1-42) fibrils in vitro
# conditionLabel: competition with [^3H]-AZD2184, Aβ(1-42) amyloid fibrils; average if run more than once
observable: IC50

Use these answered entries as a reference point.
{"columns": ["compound", "IC50"],
 "data": [
  ["COc1ccc2nc(-c3ccc(N4CC[C@@H](O)C4)nc3)sc2c1", "22 nM"],
  ["Oc1ccc2[nH]c(-c3cnc(N4CCC[C@@H](O)C4)nc3)cc2c1", "90 nM"],
  ["OCC1CN(c2ccc(-c3cc4cc(O)ccc4[nH]3)c(F)n2)C1", "47 nM"]
]}

Look up IC50 for this compound: Oc1ccc2[nH]c(-c3ccc(N4CCC[C@H](O)C4)nc3F)cc2c1 80 nM

Recorded IC50 for OCC1CCN(c2ccc(-c3cc4ccc(O)cc4[nH]3)c(F)n2)CC1 , please? 3 nM

Would you mind telling me what IC50 value was observed for O[C@@H]1CCCN(c2ccc(-c3cc4cc(OCCF)ccc4[nH]3)cn2)C1 ? 8 nM

Reported IC50, compound O[C@@H]1CCCN(c2ncc(-c3cc4cc(OCCOCCOCCF)ccc4[nH]3)cn2)C1 : ____ 25 nM

Quick check: IC50 of O[C@@H]1CCCN(c2ncc(-c3cc4cc(OCCF)ccc4[nH]3)cn2)C1 ? 12 nM

Reported IC50 for COc1ccc2nc(-c3ccc(N4CCC(O)(CO)CC4)nc3)sc2c1 : what is it? 65 nM

Reported IC50 for COc1ccc2nc(-c3ccc(N4CCCC(O)C4)nc3)sc2c1 (centres unmarked) : what is it? 8 nM
